Method Notes: NCI Yeast Anticancer Drug Screen. Data for the cln2 rad14 strain (AID 165);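 also: 0% = growth equal to vehicle treated cultures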
Assay Conditions: S. cerevisiae cln2 rad14 strain, at 5.0 µM (retest, dose inferred, filed as 0.5), stronger effect = higher value
Compounds without any hit were thinned out: in the full panel of roughly 79,000, 15% have a hit.
Measurement Type: growth inhibition (%)
Write the answer as a number in %, unit excluded.

For this molecule ( CCC1CCCCN1C(=S)N/N=C(\C)c1ccccn1 (stereo not given) ), measured growth inhibition is 21

# molecule CCCCCCCCCCCCCCCCCC[S+](C)CC (stereo not given) ; its growth inhibition = 98

Note to self: growth inhibition recorded for O=Cc1ccc(-c2ccc(-c3ccc(CO)s3)o2)s1 was 3

What the record says about COc1c(C)c2c(c(O)c1C/C=C(\C)CCC(=O)O)C(=O)OC2 : growth inhibition is 32

The molecule listed as O=c1c2ccccc2ncn1O has a reported growth inhibition of 10

Record CCCCCCCCCCCC[n+]1ccc(CCCCCCCCC)cc1 , field growth inhibition: 98

Please fill in: growth inhibition reported for O=C1c2ccccc2Cc2cccc(Cl)c21 = 0

The recorded growth inhibition for entry CN(C)c1ccc(/C=C/c2nccc3ccccc23)cc1 equals -8

Lab note: measured growth inhibition of CC(C)Nc1ccc(Nc2ccc(NC(C)C)cc2)cc1 was -10

Entry O=C1/C(=C/c2ccccc2)CCC/C1=C\c1ccccc1 , growth inhibition reported as 21

growth inhibition reading for O=C(/C=C/C(Cl)(Cl)Cl)Nc1ccc(Cl)cc1 : 25

The recorded growth inhibition for NCCN1C(=O)CNC1=S is 0

Looking up S=c1[nH]c2cc(Cl)ccc2s1 , I see its growth inhibition listed as -8

Consider OC(Cc1cc(CC(O)(C(F)(F)F)C(F)(F)F)nc(CC(O)(C(F)(F)F)C(F)(F)F)c1)(C(F)(F)F)C(F)(F)F . Its measured growth inhibition is 29

Short answer for CC(=O)Nc1ccc(C(=O)CCl)cc1 : growth inhibition was 87

molecule OC(c1cc(-c2ccc(Cl)cc2)nc2c(Cl)cccc12)C1CCCCN1 (stereo not given) , growth inhibition observed: 20

Per the records, this molecule ( CCCCCCCCCCCCSC(=N)N ) has growth inhibition equal to 20

Form field growth inhibition, entry N#CC1c2ccccc2C=CN1C(=O)CCCl (stereo not given) : 8

CCCOC1N(c2ccc(C)cc2)NC(=O)C1(C)C (stereo not given) yielded growth inhibition of 50

Briefly, growth inhibition measured for C[C@@H]1CCC([C@@H](C)[C@H]2CC[C@H]3[C@@H]4CC[C@H]5C[C@@H](O)CC[C@]5(C)[C@H]4CC[C@]23C)=NC1 : 60

Recorded result, CCCCCCCCCCCC[n+]1ccc2ccccc2c1 , growth inhibition: 98

Reported growth inhibition for CCSc1nc2ccccc2o1 was 6

Entry under test: CC1(C)OCC(COC(c2ccccc2)(c2ccccc2)c2ccccc2)O1 (stereo not given) . Its growth inhibition was -4

Quick note, growth inhibition for O=C1C=C(Cl)C(=O)c2ccccc21 landed at 31

Record CN(C)c1ccc(SC#N)cc1 . Reported growth inhibition: 3

Looking up O=C(O)c1ccc2c(c1)C(=O)c1ccccc1C2=O , I found its growth inhibition recorded as -1

The reported value for CCc1cnc2ccccc2c1/C=C/c1ccc(N(C)C)cc1 in terms of growth inhibition is -36

In plain terms, S=C1SCN(Cc2cccs2)CN1Cc1cccs1 has a documented growth inhibition of 23

Entry CC1=CC(=NC(=O)CBr)C=C/C1=N\S(=O)(=O)c1ccccc1 ; growth inhibition = 42

Reported growth inhibition of CC(C)(C)C(=O)CC(c1ccccc1)c1ccccc1 : 12

Memo: Cc1nn(CCO)c(C)c1N=[N+]([O-])c1c(C)nn(CCO)c1C , reported growth inhibition: 9

Recorded result, N=C1C=C(N)C(=O)c2ccccc21 , growth inhibition: 12

According to the records, this molecule Cc1ccc(Nc2n[nH]c(=S)s2)cc1F displays growth inhibition of 49

Measured growth inhibition, O=C(CCc1ccccc1)ON1C(=S)NC(c2ccccc2)(c2ccccc2)C1=S : 16

Entry under test: COc1cc(N(CCC#N)CCC#N)ccc1/C(N=Nc1ccc([N+](=O)[O-])cc1)=N/NC(=O)c1cc(Br)ccc1O . Its growth inhibition was 10

The reported value for Cc1c2c(c(C)c3c[n+](C)ccc13)Oc1ccccc1O2 in terms of growth inhibition is 17

Form: molecule = Nc1ncnc2c(C3OC(CO)C(O)C3O)c[nH]c12 (stereo not given) ; growth inhibition = 28

For record COc1ccc(C(N)=O)cc1 the listed growth inhibition is -3

Entry CCCOS(=O)(=O)c1ccccc1 , growth inhibition reported as 38

The value of growth inhibition measured for the molecule c1ccc(-c2cccc(-c3ccccn3)n2)nc1 turned out to be 81

response.value for O=C1Nc2ccc(Br)cc2C1=O (field: growth inhibition) = -6

Reported growth inhibition for COc1cccc(N=N/C(=N\NC(=O)c2cc(Br)ccc2O)c2ccc(N(CCC#N)CCC#N)cc2OC)c1 was 0

molecule COc1ccc(Nc2nc3ccc(C(F)(F)F)cc3nc2C(=O)O)cc1 , growth inhibition observed: 31

Quick note, growth inhibition for O=C(NNc1ccccc1)OCc1ccccc1 landed at 55

The molecule identified as O=[N+]([O-])c1ccc([I+]c2ccccc2)cc1 registered its growth inhibition at 30

# molecule CCC(C)(O)Cc1ccc(Cl)cc1 (stereo not given) ; its growth inhibition = 3

Query O=C(CBr)c1ccc(OC(=O)c2ccccc2)cc1 yields growth inhibition of 44

Consider CCCCCCCCCCCC1=NCCCN1CCCC . Its measured growth inhibition is 4

Note to self: growth inhibition recorded for O=C(C[P+](c1ccccc1)(c1ccccc1)c1ccccc1)c1ccccc1 was 18

GET /value?item= COC(=O)[C@]1(C)CCC[C@@]2(C)[C@@H]3C[C@@H]4[C@H]5C[C@@]3(CC[C@@H]21)C[C@@]45C &field=growth inhibition returns 31

====

Method Notes: NCI Yeast Anticancer Drug Screen. Data for the mec2-1 strain (AID 157)
Assay Conditions: S. cerevisiae mec2-1 strain, at 50.0 µM
The panel holds about 79,000 compounds, 15% with a hit somewhere; the sample as a whole holds those more often. The source made the active and inactive calls. No stated cut-off is given here; in the data, active means growth inhibition above about 70%; inactive means the rest.
Log the outcome using a class from Yes = active, No = inactive

Just curious, what result did On1c(-c2ccccc2)nc2ccccc2c1=S get here? Yes

What outcome does the record of this test show for CC(=O)Nc1ccc(C(=O)CCl)cc1 ? No

Hi team, can someone confirm the assay call for Cc1cc(O)c2c(c1)C(=O)C(c1c(C)cc3c(c1O)C(=O)C1OC1C3=O)=CC2=O (centres undefined) ? Yes

Per the records of this test, what outcome belongs to CC1C(c2ccccc2)OCCN1C(=S)Nc1ccc(S(=O)(=O)N2CCCCC2)cc1 (centres undefined) ? Yes

Record request — test call for OC(Cc1cc(CC(O)(C(F)(F)F)C(F)(F)F)nc(CC(O)(C(F)(F)F)C(F)(F)F)c1)(C(F)(F)F)C(F)(F)F Yes

Look up the recorded call for CC(=O)c1ccc2c(c1)CCc1ccccc1-2 in this test. No

Kindly provide the recorded test outcome for the following compound: COc1cc(/C=C2\SC(=S)N(/C=C/c3nc4ccccc4[nH]c3=O)C2=O)cc(OC)c1OC No

Called result for O=C(c1ccccc1)N(CCCl)C(=O)N(CCCl)C(=O)c1ccccc1 No

# lookup: test call for CCC(=O)c1cc([N+](=O)[O-])c(Br)s1 Yes

Each compound tested received a call. Report the one for COc1ccc(C(OCC2OC(n3ccc(NC(=O)c4ccccc4)nc3=O)C(O)C2O)(c2ccccc2)c2ccccc2)cc1 (centres undefined) . Yes

Per the records of this test, what outcome belongs to Cc1ccc(NC(=S)C#N)cc1Cl ? No

Hi, sorry to bother you, what did the test record for N#CC(=C1SCS1)[N+](=O)[O-] ? Yes

Write down the call the test reported for this compound. Item: Cc1cc(I)nc2ccccc12 No

Record lookup: outcome of this test for O=C(Cc1nc2cc(Cl)c(Cl)cc2nc1CC(=O)c1cccnc1)c1cccnc1 ? Yes

Hey, what did the test say about COc1cc(/C=C/c2ccnc3ccccc23)cc(OC)c1OC ? Yes

For N=C(N)Sc1cccc[n+]1[O-] , which call appears in the assay record? Yes

Short answer needed: outcome of this test for O=C1C(=O)c2cc([N+](=O)[O-])ccc2-c2ccccc21 ? Yes

Dear colleague, could you share the recorded outcome for O=[N+]([O-])C=C(c1ccccc1)c1ccccc1 when you have a moment? Yes

Test call for this compound, please: CC(=O)N1CC(=O)NC1=S No

Name the outcome recorded for O=C(Nc1ccc(Cl)c(Cl)c1)OCc1ccco1 in the assay. Yes

Give the logged outcome of this assay for the following compound: Cc1cccc2c(N)c3ccccc3nc12 No

Any idea what this test logged for Oc1ccc(Br)cc1Sc1cc(Br)ccc1O ? Yes

Assay outcome for CCCC[n+]1c(/C=C\c2c(OC)cc(OC)cc2OC)ccc2ccccc21 : what was it? Yes

Hello, I am checking results. What call was entered for S=c1[nH]c2cc(Cl)ccc2s1 ? No

Tell me the assay call for Oc1ccc2ccccc2c1N=Nc1ccccn1 please. Yes

Just curious, what result did N=C1C(=N)c2ccccc2-c2ccccc21 get here? Yes

Fill in: this test's call for N#C/C(=N\Nc1ccc(Cl)cc1)C(=O)C1CC1 is ___ Yes

Could you please tell me the result logged for O=C1/C(=C/c2ccccc2)CCC/C1=C\c1ccccc1 in this assay? Yes

Field: outcome | Entry: O=Nc1ccc2ccccc2c1O Yes

What outcome does the record of this test show for CCCCCCCCCCCC[S+](C)CC(=O)[O-] (centres undefined) ? No

Test call for this compound, please: Nc1c(N)c(Cl)c(Cl)c(Cl)c1Cl Yes

Tell me the assay call for S=C=Nc1ccc(N2CCOCC2)cc1 please. Yes

What did this assay record as the result for CC(O)C(O)C(O)C(O)C(O)C(=O)NNc1ccccc1 (centres undefined) ? No

Which outcome was entered for the compound O=C(c1ccc(O)c(Br)c1)c1ccc(O)c(Br)c1 in this test? Yes

// param item: C/C(=N/NC(N)=S)c1ccc(C)cc1 ; yields the recorded call No

Kindly provide the recorded test outcome for the following compound: Nc1cc(-c2ccccc2)ccc1O Yes

Check the results log: what was the call for CC1=CC[C@@H]2[C@@H](CC[C@@]2(C)O)C(C)(C)[C@H]1CC[C@@H]1[C@@]2(C)CCC(=O)C(C)(C)O[C@@H]2CC[C@]1(C)O ? No

Please indicate how the test categorized CC1(C)N=c2cc3c(cc2N1c1ccc(Cl)cc1)=Nc1ccccc1N3c1ccc(Cl)cc1 . Yes

In this assay, the call recorded for Clc1ccc(Cc2nc3ccccc3s2)cc1 was what? Yes

Field: outcome | Entry: COc1ccc2nc3cc(Cl)ccc3c(NCCCCCN3CCCCC3)c2c1 No

How did this test come out for O=C(NOC(=O)c1ccccc1)c1ccccc1 ? Yes

For CC1CC(C)(C)OB(OC(C)CC(C)(C)OB2OC(C)CC(C)(C)O2)O1 (centres undefined) , what call appears in the results of this test? No

Recorded test outcome, item CCCCCCCCCCCCCCCCCC[S+](C)CC (centres undefined) Yes

Recorded call for O=C(c1ccccc1)C(O)C(Br)(CBr)c1ccccc1 (centres undefined) ? Yes

Would you mind telling me which call this test gave C[C@@]1(CO)[C@H](O)CC[C@@]2(C)[C@H]1CC[C@H]1C[C@@H]3C[C@@]12CC[C@@]3(O)COC(=O)CN ? No

Dear colleague, could you share the recorded outcome for Cc1cc2cccnc2c2ncccc12 when you have a moment? Yes

Given O=C(C[P+](c1ccccc1)(c1ccccc1)c1ccccc1)c1ccccc1 , state the outcome it received in this test. No

Tell me the recorded outcome of this test for CC1OC(OC2C(OC3CCC4(C)C(CCC5(C)C4CC=C4C6CC(C)(C)CCC6(C(=O)O)CCC45C)C3(C)CO)OCC(O)C2O)C(O)C(O)C1O (centres undefined) . Yes

What is the recorded call for this compound in the test? O=C(CCl)N1c2ccccc2Sc2c1ccc1ccccc21 No

Data origin: PubChem BioAssay (NCI)
